Numbers sourced from PubChem BioAssay (EPA / NIEHS).

Read-out: Bcl-2 (BID) gene, BID (gene 637)
Test: LTEA_HepaRG_BID: Life Technologies and Expression Analysis (LTEA) Assay for Bcl-2 (BID) gene using HepaRG (AID 2283476)
Settings: mRNA level, 48 h; actives raise or lower the signal
Calls of active or inactive are those of the source. Rule for the calls: active = hit-call score of the fitted dose curve at least 0.9, where 1 is the maximum; inactive = score below 0.9.
Metric: outcome

compound=COc1ccc(OC(F)(F)F)cc1CN[C@H]1CCCN[C@H]1c1ccccc1 value_reported=inactive
compound=CC1(C)C(=O)NC(=O)N1CO value_reported=inactive
compound=CC(=O)[C@@]1(O)CC[C@H]2[C@@H]3CCC4=CC(=O)CC[C@]4(C)[C@H]3CC[C@@]21C value_reported=inactive
compound=Nc1nc(Cl)nc2c1ncn2[C@H]1C[C@H](O)[C@@H](CO)O1 value_reported=inactive

Each compound below has a recorded value; state its outcome.
1. O=C1NC(=O)C(c2ccccc2)(c2ccccc2)N1
2. O=C1O[C@H]([C@H](O)CO)C(O)=C1O
3. CC(=O)CC(c1ccccc1)c1c(O)c2ccccc2oc1=O (stereo not drawn)
4. CCOCCOCCO
5. O=C1OC(c2ccc(O)cc2)(c2ccc(O)cc2)c2ccccc21
6. O=[Si]=O
7. O=C(O)CC(O)(CC(=O)O)C(=O)O

1: inactive; 2: inactive; 3: inactive; 4: inactive; 5: inactive; 6: inactive; 7: inactive

Each compound below has a recorded value; state its outcome.
1. CCCCCCCC(=O)OC
2. C/C=C/C=C/C(=O)O

1. inactive
2. inactive
